Target: USP7 (Homo sapiens, UniProt Q93009)
Sequence (Q93009 whole entry): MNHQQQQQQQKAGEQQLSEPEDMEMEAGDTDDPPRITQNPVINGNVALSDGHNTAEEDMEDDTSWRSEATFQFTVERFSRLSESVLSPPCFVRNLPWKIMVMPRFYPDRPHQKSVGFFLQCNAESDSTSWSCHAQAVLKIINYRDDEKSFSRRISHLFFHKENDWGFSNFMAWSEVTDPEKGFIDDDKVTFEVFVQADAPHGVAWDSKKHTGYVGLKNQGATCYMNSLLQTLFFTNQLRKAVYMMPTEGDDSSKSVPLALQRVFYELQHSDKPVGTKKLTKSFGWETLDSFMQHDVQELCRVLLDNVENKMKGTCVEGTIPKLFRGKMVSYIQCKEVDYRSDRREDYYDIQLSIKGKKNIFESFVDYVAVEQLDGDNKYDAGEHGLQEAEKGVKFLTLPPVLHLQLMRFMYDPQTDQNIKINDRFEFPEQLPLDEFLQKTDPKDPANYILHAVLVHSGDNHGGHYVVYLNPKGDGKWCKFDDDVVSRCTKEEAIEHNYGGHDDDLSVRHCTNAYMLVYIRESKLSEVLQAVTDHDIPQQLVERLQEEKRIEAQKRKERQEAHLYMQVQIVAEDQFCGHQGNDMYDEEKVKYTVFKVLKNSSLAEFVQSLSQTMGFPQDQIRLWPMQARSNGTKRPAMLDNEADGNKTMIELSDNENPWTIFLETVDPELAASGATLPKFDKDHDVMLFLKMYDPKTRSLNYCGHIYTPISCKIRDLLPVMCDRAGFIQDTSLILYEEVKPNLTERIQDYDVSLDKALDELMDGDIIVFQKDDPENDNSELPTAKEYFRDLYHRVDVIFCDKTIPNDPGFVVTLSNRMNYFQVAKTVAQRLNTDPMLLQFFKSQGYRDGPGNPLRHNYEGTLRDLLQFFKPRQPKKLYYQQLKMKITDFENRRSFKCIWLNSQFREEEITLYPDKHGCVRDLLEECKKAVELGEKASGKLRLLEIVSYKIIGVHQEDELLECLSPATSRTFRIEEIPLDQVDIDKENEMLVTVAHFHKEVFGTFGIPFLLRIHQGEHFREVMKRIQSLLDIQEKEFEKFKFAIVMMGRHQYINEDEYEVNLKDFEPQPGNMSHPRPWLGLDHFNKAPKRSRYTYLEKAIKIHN
Assay: USP7 activity assay, Ub-AMC substrate
Format: biochemical
Set-up: Full-length wild-type human USP7 and its catalytic mutant; His tag (pFastBac-HT vector) (N); made in house; host or cells: Spodoptera frugiperda Sf9 (or High Five) insect cells, baculovirus
Details: UbAMC substrate 300 nM, USP7 100 pM
Quantity kind: IC50
State the result as a value with its unit after it.

Q) Give the reported value of IC50 for this record: CC(C)C(=O)N1CCC(O)(Cn2cnc3ccccc3c2=O)CC1 [Example 6]
A) 156 µM

Q) Give the reported value of IC50 for this record: O=C(CCC1CCCC1)N1CCC(O)(Cn2cnc3ccccc3c2=O)CC1 [Example 3]
A) 100 µM

Q) Give the reported value of IC50 for this record: CCC(CC)C(=O)N1CCC(O)(Cn2cnc3cc(Cl)ccc3c2=O)CC1 [Example 9]
A) 155 µM

----------
Target: USP7 (Homo sapiens, UniProt Q93009)
Assay: GST-Ub52-Flag HTRF deubiquitinating enzyme assay, USP7
Type: biochemical
Parameters: Full-length wild-type human USP7 and its catalytic mutant; His tag (pFastBac-HT vector) (N); made in house; host or cells: Spodoptera frugiperda Sf9 (or High Five) insect cells, baculovirus
Details: GST-Ub52-Flag substrate, USP7 200 pM
Quantity kind: IC50 (µM)
Numeric answer only, unit µM assumed.

Answered cases to consult:
Molecule	IC50 [µM]
CCC(CC)C(=O)N1CCC(O)(Cn2cnc3cc(Cl)ccc3c2=O)CC1	214
COc1cc2ncn(CC3(O)CCN(C(=O)C(C)C)CC3)c(=O)c2cc1OC	174

Q) Give the reported value of IC50 for this record: "O=C(CCc1cccs1)N1CCC(O)(Cn2cnc3ccccc3c2=O)CC1"
A) 42

Q) Give the reported value of IC50 for this record: CC(Cc1cccs1)C(=O)N1CCC(O)(Cn2cnc3cc(Cl)ccc3c2=O)CC1 (stereo not shown)
A) 33

Q) Give the reported value of IC50 for this record: "O=C(CCc1ccccc1)N1CCC(O)(Cn2cnc3ccccc3c2=O)CC1"
A) 74

Q) Give the reported value of IC50 for this record: "O=C(COc1cccc(F)c1)N1CCC(O)(Cn2cnc3ccccc3c2=O)CC1"
A) 224

Q) Give the reported value of IC50 for this record: CC(Cc1ccccc1)C(=O)N1CCC(O)(Cn2cnc3cc(Cl)ccc3c2=O)CC1 (stereo not shown)
A) 29

Q) Give the reported value of IC50 for this record: "O=C(CCc1ccccc1)N1CCC(O)(Cn2cnc3cc(Cl)ccc3c2=O)CC1"
A) 77

Q) Give the reported value of IC50 for this record: "O=C(CCC1CCCC1)N1CCC(O)(Cn2cnc3ccccc3c2=O)CC1"
A) 175

Q) Give the reported value of IC50 for this record: CC(Cc1cccs1)C(=O)N1CCC(O)(Cn2cnc3ccccc3c2=O)CC1 (stereo not shown)
A) 36

Q) Give the reported value of IC50 for this record: "O=C(CCC1CCCC1)N1CCC(O)(Cn2cnc3cc(Cl)ccc3c2=O)CC1"
A) 173

----------
Target: UniProtKB P40818
Sequence (P40818 1-1118): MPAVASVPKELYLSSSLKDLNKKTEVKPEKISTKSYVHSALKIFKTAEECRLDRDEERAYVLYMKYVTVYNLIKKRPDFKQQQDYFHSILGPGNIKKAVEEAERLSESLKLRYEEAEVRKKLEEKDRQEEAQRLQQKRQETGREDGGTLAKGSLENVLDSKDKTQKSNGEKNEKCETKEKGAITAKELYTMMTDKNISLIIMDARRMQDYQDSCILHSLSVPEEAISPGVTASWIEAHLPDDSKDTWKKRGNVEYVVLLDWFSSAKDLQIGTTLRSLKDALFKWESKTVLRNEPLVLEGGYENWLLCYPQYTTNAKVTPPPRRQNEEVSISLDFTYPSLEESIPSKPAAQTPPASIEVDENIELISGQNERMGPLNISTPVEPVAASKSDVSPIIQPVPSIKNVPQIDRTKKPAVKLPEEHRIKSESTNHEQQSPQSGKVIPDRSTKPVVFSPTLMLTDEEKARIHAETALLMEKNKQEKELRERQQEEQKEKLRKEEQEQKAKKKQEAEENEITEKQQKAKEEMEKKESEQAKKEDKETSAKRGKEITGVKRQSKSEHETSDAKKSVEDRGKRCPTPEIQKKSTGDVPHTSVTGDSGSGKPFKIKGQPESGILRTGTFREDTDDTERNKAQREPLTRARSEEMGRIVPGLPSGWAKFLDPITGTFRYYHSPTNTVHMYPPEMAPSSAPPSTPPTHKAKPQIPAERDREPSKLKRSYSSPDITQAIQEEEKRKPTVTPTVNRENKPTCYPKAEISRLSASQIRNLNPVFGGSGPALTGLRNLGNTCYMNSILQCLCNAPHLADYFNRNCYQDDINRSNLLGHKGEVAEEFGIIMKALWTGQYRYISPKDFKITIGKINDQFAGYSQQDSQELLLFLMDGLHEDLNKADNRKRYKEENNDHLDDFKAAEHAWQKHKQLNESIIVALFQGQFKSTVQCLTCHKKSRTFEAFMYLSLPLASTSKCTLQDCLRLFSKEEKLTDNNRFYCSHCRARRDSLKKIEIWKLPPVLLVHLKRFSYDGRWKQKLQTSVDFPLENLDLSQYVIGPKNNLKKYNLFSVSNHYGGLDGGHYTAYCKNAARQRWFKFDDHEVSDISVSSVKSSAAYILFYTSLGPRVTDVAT
Assay: GST-Ub52-Flag HTRF deubiquitinating enzyme assay, USP8
pIC50: −log10 of the molar value.
Items are presented alongside their recorded pIC50.

Answered cases to consult:
Compound	Assay value
O=C(COc1cccc(F)c1)N1CCC(O)(Cn2cnc3ccccc3c2=O)CC1	< 3.70
O=C(CCc1cccs1)N1CCC(O)(Cn2cnc3ccccc3c2=O)CC1	< 3.70
O=C(CCC1CCCC1)N1CCC(O)(Cn2cnc3cc(Cl)ccc3c2=O)CC1	< 3.70
CC(Cc1cccs1)C(=O)N1CCC(O)(Cn2cnc3cc(Cl)ccc3c2=O)CC1 (stereo not drawn)	< 3.70
CC(Cc1ccccc1)C(=O)N1CCC(O)(Cn2cnc3ccccc3c2=O)CC1 (stereo not drawn)	< 3.70

Q) Fill: pIC50 (UniProtKB P40818) for this compound "CC(C)C(=O)N1CCC(O)(Cn2cnc3ccccc3c2=O)CC1"
A) < 3.70

Q) Fill: pIC50 (UniProtKB P40818) for this compound CC(Cc1ccccc1)C(=O)N1CCC(O)(Cn2cnc3cc(Cl)ccc3c2=O)CC1 (stereo not drawn)
A) < 3.70

Q) Fill: pIC50 (UniProtKB P40818) for this compound "O=C(CCC1CCCC1)N1CCC(O)(Cn2cnc3ccccc3c2=O)CC1"
A) < 3.70

Q) Fill: pIC50 (UniProtKB P40818) for this compound "COc1cc2ncn(CC3(O)CCN(C(=O)C(C)C)CC3)c(=O)c2cc1OC"
A) < 3.70

----------
Molecular target: USP7 (Homo sapiens, UniProt Q93009)
Test: USP7 activity assay, Ub-AMC substrate
Assay type: biochemical
Parameters: Full-length wild-type human USP7 and its catalytic mutant; His tag (pFastBac-HT vector) (N); made in house; host or cells: Spodoptera frugiperda Sf9 (or High Five) insect cells, baculovirus
Details: UbAMC substrate 300 nM, USP7 100 pM
Criterion: IC50 strictly under 70 µM. Met: TRUE. Not met: FALSE.

For orientation, consider the following solved cases.
Molecule	Class label
CC(Cc1cccs1)C(=O)N1CCC(O)(Cn2cnc3ccccc3c2=O)CC1 (stereo not drawn) [Example 5]	TRUE
CC(Cc1ccccc1)C(=O)N1CCC(O)(Cn2cnc3cc(Cl)ccc3c2=O)CC1 (stereo not drawn) [Example 14]	TRUE
O=C(CCC1CCCC1)N1CCC(O)(Cn2cnc3cc(Cl)ccc3c2=O)CC1 [Example 4]	TRUE
O=C(CCc1ccccc1)N1CCC(O)(Cn2cnc3cc(Cl)ccc3c2=O)CC1 [Example 2]	TRUE

Q) Consider COc1ccccc1CCC(=O)N1CCC(O)(Cn2cnc3ccccc3c2=O)CC1 [Example 10] . Does its IC50 lie strictly below 70 µM?
A) FALSE

Q) Consider CC(Cc1cccs1)C(=O)N1CCC(O)(Cn2cnc3cc(Cl)ccc3c2=O)CC1 (stereo not drawn) [Example 11] . Does its IC50 lie strictly below 70 µM?
A) TRUE

Q) Consider COc1cc2ncn(CC3(O)CCN(C(=O)C(C)C)CC3)c(=O)c2cc1OC [Example 7] . Does its IC50 lie strictly below 70 µM?
A) FALSE

This collection of values is drawn from patent US9546150B2.
